assay: Cmax in dog at […], po; format: ADME, organism-based, Canis lupus familiaris; design: dose 2.5 mg/kg, route oral; settings: in vivo
Readout: Cmax (ng/mL)

Examples with their reported Cmax follow.
CC(C)(C)c1ccc(S(=O)(=O)N2CCC3=Cc4c(cnn4-c4ccc(F)cc4)C[C@]3(C)C2)cc1 :: 524
COC[C@]12Cc3cnn(-c4ccc(F)cc4)c3C=C1CCN(S(=O)(=O)c1ccccc1)C2 :: 258

A = COC[C@]12Cc3cnn(-c4ccc(F)cc4)c3C=C1CCN(S(=O)(=O)c1ccc(C(F)(F)F)cc1)C2
B = COC[C@]12Cc3cnn(-c4ccc(F)cc4)c3C=C1CCN(S(=O)(=O)c1ccc(F)cc1)C2
Query: Which has the higher Cmax, A or B ? API: response body contains the label of the selected item.
Response: A

* * *

test: Cmax in rat at 5 mg/kg, po; assay type: ADME, organism-based; parameters: dose 5 mg/kg, route oral; conditions: in vivo
Readout: Cmax (ng/mL)

Examples with their reported Cmax follow.
COC[C@]12Cc3cnn(-c4ccc(F)cc4)c3C=C1CCN(S(=O)(=O)c1ccc(C(C)(C)C)cc1)C2 :: 94
CC(C)(C)c1ccc(S(=O)(=O)N2CCC3=Cc4c(cnn4-c4ccc(F)cc4)C[C@]3(C)C2)cc1 :: 199
CC(C)(C)c1ccc(S(=O)(=O)N2CCC3=Cc4c(cnn4-c4ccc(F)cc4)C[C@]3(CN3CCOCC3)C2)cc1 :: 75

A = COC[C@]12Cc3cnn(-c4ccc(F)cc4)c3C=C1CCN(S(=O)(=O)c1ccc(C(F)(F)F)cc1)C2
B = COC[C@]12Cc3cnn(-c4ccc(F)cc4)c3C=C1CCN(S(=O)(=O)c1ccc(F)cc1)C2
C = COC[C@]12Cc3cnn(-c4ccc(F)cc4)c3C=C1CCN(S(=O)(=O)c1ccccc1)C2
Query: Order the records so the highest Cmax appears first and the lowest last. Answer format: the labels, in the requested order.
Response: A, B, C
(A: 163 ng/mL, B: 106 ng/mL, C: 23 ng/mL)

* * *

experiment: Ratio of drug level in brain to plasma in rat at 5 mg/kg, po; type: ADME, organism-based; parameters: dose 5 mg/kg, route oral; conditions: read-out: BPR
Readout: Kp

Examples with their reported Kp follow.
CC(C)(C)c1ccc(S(=O)(=O)N2CCC3=Cc4c(cnn4-c4ccc(F)cc4)C[C@]3(CN3CCOCC3)C2)cc1 :: 0.1
CC(C)(C)c1ccc(S(=O)(=O)N2CCC3=Cc4c(cnn4-c4ccc(F)cc4)C[C@]3(C)C2)cc1 :: 0.07
COC[C@]12Cc3cnn(-c4ccc(F)cc4)c3C=C1CCN(S(=O)(=O)c1ccc(F)cc1)C2 :: 1.1

1 = COC[C@]12Cc3cnn(-c4ccc(F)cc4)c3C=C1CCN(S(=O)(=O)c1ccc(C(C)(C)C)cc1)C2
2 = COC[C@]12Cc3cnn(-c4ccc(F)cc4)c3C=C1CCN(S(=O)(=O)c1ccccc1)C2
Query: Which has the higher Kp, 1 or 2 ? API: response body contains the label of the selected item.
Response: 2

* * *

molecular target: Glucocorticoid receptor (Homo sapiens, UniProt P04150); test: Displacement of [3H]dexamethasone from human recombinant GR
Sequence (P04150 whole entry): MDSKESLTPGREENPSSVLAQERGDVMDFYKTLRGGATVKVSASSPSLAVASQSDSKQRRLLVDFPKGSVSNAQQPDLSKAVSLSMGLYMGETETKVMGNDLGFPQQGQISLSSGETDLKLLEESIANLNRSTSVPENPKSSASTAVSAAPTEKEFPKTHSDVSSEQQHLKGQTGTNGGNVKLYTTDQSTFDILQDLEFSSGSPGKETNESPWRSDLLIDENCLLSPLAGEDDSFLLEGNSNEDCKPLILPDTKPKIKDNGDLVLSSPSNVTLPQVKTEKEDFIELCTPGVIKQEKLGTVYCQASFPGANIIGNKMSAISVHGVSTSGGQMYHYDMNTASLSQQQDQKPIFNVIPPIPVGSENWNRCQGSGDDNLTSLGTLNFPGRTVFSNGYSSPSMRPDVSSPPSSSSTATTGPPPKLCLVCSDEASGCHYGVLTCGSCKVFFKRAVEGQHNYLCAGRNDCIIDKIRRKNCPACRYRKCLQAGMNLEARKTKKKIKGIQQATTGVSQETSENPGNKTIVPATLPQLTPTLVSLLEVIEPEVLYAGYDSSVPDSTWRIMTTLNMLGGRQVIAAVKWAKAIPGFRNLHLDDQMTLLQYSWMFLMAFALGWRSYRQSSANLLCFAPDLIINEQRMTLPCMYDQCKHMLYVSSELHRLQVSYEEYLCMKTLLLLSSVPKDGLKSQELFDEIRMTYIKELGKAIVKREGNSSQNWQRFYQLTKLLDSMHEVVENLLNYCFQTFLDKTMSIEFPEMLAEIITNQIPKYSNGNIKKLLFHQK
Readout: Ki (nM)

I = C[C@]12Cc3cnn(-c4ccc(F)cc4)c3C=C1CCN(S(=O)(=O)c1ccc(C(F)(F)F)cc1)C2
II = O=S(=O)(c1ccc(F)cc1)N1CCC2=Cc3c(cnn3-c3ccc(F)cc3)C[C@]2(CO)C1
III = O=S(=O)(c1ccccc1)N1CCC2=Cc3c(cnn3-c3ccc(F)cc3)C[C@]2(CN2CCCCC2)C1
Query: Place the item with the largest Ki first, then continue in falling order, using the list above. Answer format: the labels, in the requested order.
Response: II, I, III
(II: 8.6 nM, I: 3.4 nM, III: 0.8 nM)
